- target system: human plasma protein factor Xa (Homo sapiens, UniProt P00742)
- Construct: measure proteolytic activity of the enzyme (factor Xa); purchased Haematologic Technologies (Essex Junction, Vt.); host or cells: human plasma
- Sequence (P00742 235-488 limits assumed): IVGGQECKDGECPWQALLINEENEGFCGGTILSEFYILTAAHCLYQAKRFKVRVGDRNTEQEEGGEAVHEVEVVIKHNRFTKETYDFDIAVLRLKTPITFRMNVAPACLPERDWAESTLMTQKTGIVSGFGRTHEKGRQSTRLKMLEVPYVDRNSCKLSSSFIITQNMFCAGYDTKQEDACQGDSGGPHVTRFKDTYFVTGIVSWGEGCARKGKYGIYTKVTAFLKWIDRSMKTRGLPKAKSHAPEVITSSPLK
- Sequence (P00742 41-179 partner limits assumed): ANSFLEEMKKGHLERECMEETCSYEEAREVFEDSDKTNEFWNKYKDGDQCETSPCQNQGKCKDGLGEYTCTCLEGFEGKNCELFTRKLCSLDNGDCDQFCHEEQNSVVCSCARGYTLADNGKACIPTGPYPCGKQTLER
- assay summary: Factor Xa IC50 determination (cleavage of chromogenic substrate S-2765)
- Format: biochemical
- test parameters: fXa 1 nM, S-2765 100 μM, Tris buffered saline pH 7.4, room temperature
- Description: This example illustrates methods for evaluating the compounds of the invention, along with results obtained for such assays. The in vitro and in vivo Factor Xa isoform activities of the inventive compounds can be determined by various procedures known in the art, such as a test for their ability to inhibit the activity of the Factor Xa isoform. […] The IC50 value is the concentration (in nM) of the compound required to provide 50% inhibition of Factor Xa isoform. […]
pIC50: −log10 of the molar value.
value kind: pIC50

Below are worked cases with known answers.
Cc1ccccc1C(NC(=O)Nc1ccc(Cl)cc1)C(=O)Nc1ccc(C(=O)N2CCCC2)cc1 (centres unmarked) [Example 94] | ≥ 7.00
CN1CCN=C1c1ccc(NC(=O)C(CC(=O)N2CCCC2)NC(=O)Nc2ccc(Cl)cc2)cc1 (centres unmarked) [Example 66] | ≤ 6.30

input: Item COc1ccccc1C(NC(=O)Nc1ccc(Cl)cc1)C(=O)N1CCC(N2CCOCC2=O)CC1 (centres unmarked) [Example 148] with human plasma protein factor Xa (Homo sapiens, UniProt P00742) - pIC50?
output: ≥ 7.00

input: Entry CC(C)N1CCC(NC(=O)C(NC(=O)Nc2ccc(Cl)cc2)c2ccccc2Br)CC1 (centres unmarked) [Example 82] please
output: ≤ 6.30

input: Entry CN1CCN=C1c1ccc(NC(=O)C(NC(=O)Nc2ccc(Br)cc2)c2ccccc2F)cc1 (centres unmarked) [Example 40] please
output: ≥ 7.00
